system: NCI-H226; assay: NCI tumour cell line growth inhibition, 48 h
Active and inactive are the calls of the source. No stated cut-off is given here; in the data, active = GI50 up to about 1.1 µM and inactive = higher.
Pick one: yes (1) (active), no (0) (inactive)

Consider the worked cases shown below.
Compound	Group
CC(NNC(=O)c1cc[n+]([BH2-]C#N)cc1)c1ccc(Cl)cc1Cl (stereo not drawn)	no (0)
CC1(C)NC(C)(C)/C(=N\O)C(=NO)/C1=N/O	no (0)
CC(=O)Oc1cc(/C=C/c2ccc(O)cc2)cc(OC(C)=O)c1	no (0)
C=C(Cl)/C(=C\Br)CCC(Cl)C(C)C.C=C(Cl)/C(=C\Cl)CCC(Cl)C(C)C (stereo not drawn)	no (0)
COCCOCN(C(=O)C1=CCC2(CC1)OCCO2)c1ccccc1I	no (0)
O=C1CCCC[C@H]1[C@H]1CCC[C@@H]([C@H]2CCCCC2=O)C1=O	no (0)
COc1ccc(C(c2ccc(C(C)C)cc(=O)c2O)c2ccc3cccnc3c2O)cc1 (stereo not drawn)	yes (1)

Any idea what this test logged for O=C1CC2(CCC(O)(c3cccc4ccccc34)C(C(=O)c3cccc4ccccc34)C2)C(=O)c2ccccc2N1 (stereo not drawn) ? no (0)

* * *

Recorded GI50 values for a group of compounds are listed next.
test system: MDA-N; assay: NCI tumour cell line growth inhibition, 48 h
Active and inactive are the calls of the source. Cut-off read from the data, not from the text of the source: active = GI50 up to about 1.1 µM and inactive = higher.

Guide cases for GI50, answers given:
Compound	Result
C=CC1=C(C)c2cc3[nH]c(c4c5nc(cc6[nH]c(cc1n2)c(C)c6CC)C=C5C(=O)C4C(=O)OC)C(CCC(=O)OC/C=C(\C)CCCC(C)CCCC(C)CCCC(C)C)C3C.C=CC1=C(C)c2cc3[nH]c(c4c5nc(cc6[nH]c(cc1n2)c(C=O)c6CC)C=C5C(=O)C4C(=O)OC)C(CCC(=O)OC/C=C(\C)CCCC(C)CCCC(C)CCCC(C)C)C3C (configuration not stated)	> 100 µM (inactive)
COc1cc(OC2OC(CO)C(O)C(O)C2O)c2c(O)c3c(=O)cc(C)oc3cc2c1 (configuration not stated)	> 10 µM (inactive)
CC(=O)N1N=C(c2cc(C)ccc2O)CC1c1cccc(Cl)c1 (configuration not stated)	2.12 µM (inactive)

Which GI50 value is on record for CC1(C)C=CC(=O)C(O)C(C)(C)C1=O (configuration not stated) ? 52.8 µM (inactive)

Which GI50 value is on record for C=C1C(=O)OC2C1C(OC(=O)/C(C)=C/C)CC(O)(CCl)C1C(O)C=C(C)C21O (configuration not stated) ? 14.9 µM (inactive)

Which GI50 value is on record for CCOC(=O)c1csc(NC(=O)C(C)N2CCCCC2)n1 (configuration not stated) ? > 100 µM (inactive)

Which GI50 value is on record for CON(C)C(=O)C(Cc1ccccc1)NC(=O)OC(C)(C)C (configuration not stated) ? > 100 µM (inactive)

* * *

test system: COLO 205; experiment: NCI tumour cell line growth inhibition, 48 h
Structures can show the parent of a compound that is named as a salt. Activity calls are given as the source filed them. No stated cut-off is given here; in the data, active = GI50 up to about 1.1 µM and inactive = higher.
Pick one: 1 (yes) for active, 0 (no) for inactive

Consider the worked cases shown below.
Compound	Subject of test	Group
Cc1cc(N(CCC#N)CCC#N)ccc1/C=C(\NC(=O)/C=C/c1ccccc1)C(=O)Nc1ccccc1Cl	COLO 205	0 (no)
CC1(C)CC(=O)C(=CNc2nc(-c3ccccc3)cs2)C(=O)C1	COLO 205	0 (no)
CC(C)c1oc(=O)cc2c1C(O)C1OC(=O)C3(C)C(O)C4OC4C2(C)C13 (stereo not given) [NAGILACTONE]	COLO 205	0 (no)
CCCCOC(=O)CC(CC(=O)OCCCC)(OC(C)=O)C(=O)OCCCC [ACETYLTRIBUTYL CITRATE]	COLO 205	0 (no)
C/C(=N\n1c(Cc2ccccc2)n[nH]c1=O)c1ccccc1	COLO 205	0 (no)
N#Cc1c(-c2ccc([N+](=O)[O-])cc2)c(C#N)c(=O)n(NS(=O)(=O)c2ccccc2)c1O	COLO 205	0 (no)
CCOC(=O)c1c(-c2ccc(OC)cc2)c(C#N)c(=S)n(C2OC(COC(C)=O)C(OC(C)=O)C(OC(C)=O)C2OC(C)=O)c1C (stereo not given)	COLO 205	0 (no)
O=C(/C=C/c1ccccc1)NNC(=O)c1c(Cl)c(Cl)c(Cl)c(Cl)c1-c1nc2ccccc2[nH]1	COLO 205	0 (no)

Any idea what this test logged for COc1cc(OC2OC(CO)C(O)C(O)C2O)c2c(O)c3c(=O)cc(C)oc3cc2c1 (stereo not given) ? 0 (no)

Any idea what this test logged for Nc1nc(CCc2n[nH]c(N)n2)n[nH]1 ? 0 (no)

Any idea what this test logged for NCC(=O)N[C@H]1c2ccsc2/C(=N/O)[C@H]1O ? 0 (no)

Any idea what this test logged for Oc1cc(-c2ccccn2)nc2cc(F)ccc12 ? 0 (no)

Any idea what this test logged for CS(=O)(=O)OCCCNCCCOS(C)(=O)=O ? 0 (no)

Any idea what this test logged for CN1CCOC1c1ccccc1O (stereo not given) ? 0 (no)

Any idea what this test logged for O=C(c1ccccc1)c1c(CC(O)c2ccccc2)n(C(=O)c2ccccc2)c2ccccc12 (stereo not given) ? 0 (no)

All values here come from ChEMBL document CHEMBL1201862.
